condition: anaerostipes sp., 12 h, 2 µM
Description: The drug is tested on Anaerostipes sp. strain: fecal isolate for biotransformation. The drug concentrations were measured before and after a 12-h incubation by liquid-chromatography-coupled mass spectrometry (LC–MS)
measured_quantity: Bacterial Biotransformation

Take a look at these entries with their results.
- compound: "CN1CCN(CC/C=C2/c3ccccc3Sc3ccc(S(=O)(=O)N(C)C)cc32)CC1 [THIOTHIXENE]"
  Bacterial Biotransformation: "Compound metabolized"
- compound: "CC(C)NCC(O)COc1ccc(COCCOC(C)C)cc1.CC(C)NCC(O)COc1ccc(COCCOC(C)C)cc1.O=C(O)/C=C/C(=O)O (stereo unspecified) [BISOPROLOL FUMARATE]"
  Bacterial Biotransformation: "Compound NOT metabolized"
- compound: "CN[C@H]1CC[C@@H](c2ccc(Cl)c(Cl)c2)c2ccccc21 [SERTRALINE]"
  Bacterial Biotransformation: "Compound NOT metabolized"
- compound: "Nc1nc(NC2CC2)c2ncn([C@H]3C=C[C@@H](CO)C3)c2n1.Nc1nc(NC2CC2)c2ncn([C@H]3C=C[C@@H](CO)C3)c2n1.O=S(=O)(O)O [ABACAVIR SULFATE]"
  Bacterial Biotransformation: "Compound NOT metabolized"
- compound: "CCN(CC)CCNC(=O)c1cc(Cl)c(N)cc1OC [METOCLOPRAMIDE]"
  Bacterial Biotransformation: "Compound NOT metabolized"

Req: Param item = CC(C(=O)O)c1ccc2c(c1)Cc1cccnc1O2 (stereo unspecified) [PRANOPROFEN] ; retrieve measured Bacterial Biotransformation.
Resp: Compound NOT metabolized

Req: Param item = CC(=O)SCC(Cc1ccccc1)C(=O)NCC(=O)OCc1ccccc1 (stereo unspecified) [RACECADOTRIL] ; retrieve measured Bacterial Biotransformation.
Resp: Compound NOT metabolized

Req: Param item = O=C(CCCN1CCC(O)(c2ccc(Cl)cc2)CC1)c1ccc(F)cc1 [HALOPERIDOL] ; retrieve measured Bacterial Biotransformation.
Resp: Compound NOT metabolized

Req: Param item = CC(N)C12CC3CC(CC(C3)C1)C2 (stereo unspecified) [RIMANTADINE] ; retrieve measured Bacterial Biotransformation.
Resp: Compound NOT metabolized

Req: Param item = CNC(=C[N+](=O)[O-])NCCSCc1ccc(CN(C)C)o1 [RANITIDINE] ; retrieve measured Bacterial Biotransformation.
Resp: Compound NOT metabolized

Req: Param item = CC(C)(C(=O)O)c1ccc(C(O)CCCN2CCC(C(O)(c3ccccc3)c3ccccc3)CC2)cc1 (stereo unspecified) [FEXOFENADINE] ; retrieve measured Bacterial Biotransformation.
Resp: Compound NOT metabolized

Req: Param item = CC(C)OC(=O)C(C)(C)Oc1ccc(C(=O)c2ccc(Cl)cc2)cc1 [FENOFIBRATE] ; retrieve measured Bacterial Biotransformation.
Resp: Compound metabolized

Req: Param item = Clc1cccc(Cl)c1N=C1NCCN1 [CLONIDINE] ; retrieve measured Bacterial Biotransformation.
Resp: Compound NOT metabolized

----------
assay_overview: The drug is tested on Providencia stuartii strain: ATCC25827 for biotransformation. The drug concentrations were measured before and after a 12-h incubation by liquid-chromatography-coupled mass spectrometry (LC–MS)
condition: 2 µM
measured_quantity: Bacterial Biotransformation

Take a look at these entries with their results.
- compound: "CCCCC(=O)N(Cc1ccc(-c2ccccc2-c2nnn[nH]2)cc1)[C@H](C(=O)O)C(C)C"
  Bacterial Biotransformation: "Compound NOT metabolized"
- compound: "CCS(=O)(=O)CCn1c([N+](=O)[O-])cnc1C [TINIDAZOLE]"
  Bacterial Biotransformation: "Compound NOT metabolized"
- compound: "CC(C)c1nc(N(C)S(C)(=O)=O)nc(-c2ccc(F)cc2)c1/C=C/[C@@H](O)C[C@@H](O)CC(=O)[O-].CC(C)c1nc(N(C)S(C)(=O)=O)nc(-c2ccc(F)cc2)c1/C=C/[C@@H](O)C[C@@H](O)CC(=O)[O-].[Ca+2] [ROSUVASTATIN CALCIUM]"
  Bacterial Biotransformation: "Compound NOT metabolized"
- compound: "C#C[C@]1(O)CC[C@H]2[C@@H]3CCC4=Cc5oncc5C[C@]4(C)[C@H]3CC[C@@]21C [DANAZOL]"
  Bacterial Biotransformation: "Compound metabolized"
- compound: "CN(C)CCC=C1c2ccccc2C=Cc2ccccc21 [CYCLOBENZAPRINE]"
  Bacterial Biotransformation: "Compound NOT metabolized"

Req: Param item = CCOC(=O)[C@H](CCc1ccccc1)N[C@@H](C)C(=O)N1[C@H](C(=O)O)C[C@@H]2CCC[C@@H]21 ; retrieve measured Bacterial Biotransformation.
Resp: Compound NOT metabolized

Req: Param item = CCC(COC(=O)c1cc(OC)c(OC)c(OC)c1)(c1ccccc1)N(C)C.O=C(O)/C=C\C(=O)O (stereo unspecified) ; retrieve measured Bacterial Biotransformation.
Resp: Compound NOT metabolized

Req: Param item = N[C@@H](Cc1ccc(N(CCCl)CCCl)cc1)C(=O)O ; retrieve measured Bacterial Biotransformation.
Resp: Compound metabolized

Req: Param item = C[N+]12CCC(CC1)C(OC(=O)C(O)(c1ccccc1)c1ccccc1)C2.[Br-] (stereo unspecified) [CLIDINIUM BROMIDE] ; retrieve measured Bacterial Biotransformation.
Resp: Compound NOT metabolized

Req: Param item = CC(=O)OCC(=O)NCCCOc1cccc(CN2CCCCC2)c1 [ROXATIDINE ACETATE] ; retrieve measured Bacterial Biotransformation.
Resp: Compound metabolized

Req: Param item = CCCN(CCC)CCc1cccc2c1CC(=O)N2 [ROPINIROLE] ; retrieve measured Bacterial Biotransformation.
Resp: Compound NOT metabolized

Req: Param item = CC1=C(CC(=O)O)c2cc(F)ccc2/C1=C\c1ccc([S+](C)[O-])cc1 (stereo unspecified) ; retrieve measured Bacterial Biotransformation.
Resp: Compound NOT metabolized

Req: Param item = CN1CCC[C@@H]1CCO[C@](C)(c1ccccc1)c1ccc(Cl)cc1.O=C(O)/C=C/C(=O)O [CLEMASTINE FUMARATE] ; retrieve measured Bacterial Biotransformation.
Resp: Compound NOT metabolized

Req: Param item = CCOc1ccc2nc(S(N)(=O)=O)sc2c1 [ETHOXZOLAMIDE] ; retrieve measured Bacterial Biotransformation.
Resp: Compound metabolized

Req: Param item = O=C(CCCN1CCC(O)(c2ccc(Cl)cc2)CC1)c1ccc(F)cc1 [HALOPERIDOL] ; retrieve measured Bacterial Biotransformation.
Resp: Compound NOT metabolized

Req: Param item = CN1CCc2c(c3ccccc3n2Cc2ccccc2)C1.CN1CCc2c(c3ccccc3n2Cc2ccccc2)C1.O=S(=O)(O)c1cccc2c(S(=O)(=O)O)cccc12 ; retrieve measured Bacterial Biotransformation.
Resp: Compound NOT metabolized

Req: Param item = COc1cc2nc(N3CCN(C(=O)C4COc5ccccc5O4)CC3)nc(N)c2cc1OC.CS(=O)(=O)O (stereo unspecified) [DOXAZOSIN MESYLATE] ; retrieve measured Bacterial Biotransformation.
Resp: Compound NOT metabolized

Req: Param item = CC(=O)OCC(=O)[C@@]12N=C(C)O[C@@H]1C[C@H]1[C@@H]3CCC4=CC(=O)C=C[C@]4(C)[C@H]3[C@@H](O)C[C@@]12C [DEFLAZACORT] ; retrieve measured Bacterial Biotransformation.
Resp: Compound metabolized

Req: Param item = CCN(CC)CCNC(=O)c1cc(S(C)(=O)=O)ccc1OC [TIAPRIDE] ; retrieve measured Bacterial Biotransformation.
Resp: Compound NOT metabolized

Req: Param item = CCCC(=O)Nc1ccc(OCC(O)CNC(C)C)c(C(C)=O)c1 (stereo unspecified) [ACEBUTOLOL] ; retrieve measured Bacterial Biotransformation.
Resp: Compound NOT metabolized

Req: Param item = CC(C)[C@H]1CC[C@H](C(=O)N[C@H](Cc2ccccc2)C(=O)O)CC1 [NATEGLINIDE] ; retrieve measured Bacterial Biotransformation.
Resp: Compound NOT metabolized

----------
condition: bacteroides thetaiotaomicron, 12 h, 2 µM
Description: The drug is tested on Bacteroides thetaiotaomicron strain: 3731 for biotransformation. The drug concentrations were measured before and after a 12-h incubation by liquid-chromatography-coupled mass spectrometry (LC–MS)
measured_quantity: Bacterial Biotransformation

Take a look at these entries with their results.
- compound: "C#C[C@]1(OC(C)=O)CC[C@H]2[C@@H]3CCC4=C/C(=N/O)CC[C@@H]4[C@H]3CC[C@@]21CC [NORGESTIMATE]"
  value_reported: "Compound NOT metabolized"
- compound: "CC(=O)O[C@]1(C(C)=O)CC[C@H]2[C@@H]3C=C(Cl)C4=CC(=O)[C@@H]5C[C@@H]5[C@]4(C)[C@H]3CC[C@@]21C [CYPROTERONE ACETATE]"
  value_reported: "Compound metabolized"
- compound: "Nc1ccc(/N=N/c2ccccc2)c(N)n1 [PHENAZOPYRIDINE]"
  value_reported: "Compound metabolized"
- compound: "OCCN1CCN(CCCN2c3ccccc3Sc3ccc(C(F)(F)F)cc32)CC1 [FLUPHENAZINE]"
  value_reported: "Compound metabolized"
- compound: "COc1ccc(C(CN(C)C)C2(O)CCCCC2)cc1 (configuration not stated) [VENLAFAXINE]"
  value_reported: "Compound NOT metabolized"
- compound: "CN1CCN(C2=Nc3cc(Cl)ccc3Nc3ccccc32)CC1 [CLOZAPINE]"
  value_reported: "Compound NOT metabolized"
- compound: "CS(=O)(=O)O.OC(CCN1CCCCC1)(c1ccccc1)c1ccccc1 [PRIDINOL METHANESULFONATE]"
  value_reported: "Compound NOT metabolized"
- compound: "N#Cc1ccc(C(c2ccc(C#N)cc2)n2cncn2)cc1 [LETROZOLE]"
  value_reported: "Compound NOT metabolized"
- compound: "CCN(CC)C(C)CN1c2ccccc2Sc2ccccc21 (configuration not stated) [ETHOPROPAZINE]"
  value_reported: "Compound NOT metabolized"
- compound: "O=C(NC(Cc1cc(=O)[nH]c2ccccc12)C(=O)O)c1ccc(Cl)cc1 (configuration not stated) [REBAMIPIDE]"
  value_reported: "Compound NOT metabolized"

Req: Param item = C#C[C@]1(O)CC[C@H]2[C@@H]3CCC4=Cc5oncc5C[C@]4(C)[C@H]3CC[C@@]21C [DANAZOL] ; retrieve measured Bacterial Biotransformation.
Resp: Compound metabolized

Req: Param item = CCC(=O)NCC[C@@H]1CCc2ccc3c(c21)CCO3 [RAMELTEON] ; retrieve measured Bacterial Biotransformation.
Resp: Compound metabolized

Provenance of the data: ChEMBL document CHEMBL5303573
